Test: chemical genetic growth profiling, strain panel (AID 1159580);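 further: tested at 20 µM; growth read once vehicle control cultures reached saturation at 30 °C; lower values mean less growth of the strain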
Settings: S. cerevisiae deletion strains, growth OD, locus YLR268W, strain sec22
Among all 5,500 compounds or so, about 2,000 (36%) were called active. Inconclusive results (about 18%) are left out. No stated cut-off is given here; in the data, active means normalized growth mostly below about 0.91 (no sharp cut-off); inconclusive means no clear call, values can overlap the other calls; inactive means mostly above about 0.92. This is one part of the list.
Classes used: active, inactive

1. CNCCCC12CCC(c3ccccc31)c1ccccc12 ... inactive
2. CCCN(CCC)S(=O)(=O)c1ccc(C(=O)O)cc1 ... inactive
3. CN(C)C1C(=O)C(C(N)=O)=C(O)C2(O)C(=O)C3=C(O)c4c(O)ccc(Cl)c4C(C)(O)C3CC12 (stereo not given) ... inactive
4. O=C(O)c1cccnc1 ... active
5. CC(C)c1ccc2c(c1)CCC1C(C)(C(N)=O)CCCC21C (stereo not given) ... inactive
